Test system: MDA-MB-231 complex spheroid viability
assay.summary: Anticancer human tumor MDA-MB-231/ATCC cell line growth inhibition;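 also: drug exposure lasted 7 days starting on day 3 of spheroid growth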
condition.summary: second compound 3.16 µM; first compound 0.3 µM; stronger effect = lower value
Rule: viability, T/C below 20% gives Y. Equal to or above 20% gives N.

Solved entries (count: 3):
compound	label.class
Nc1ncn(C2CC(O)C(CO)S2)c(=O)n1 (configuration not stated) + NC1CC1c1ccc(-c2cccc(O)c2)cc1	Y
CCc1c2c(nc3ccc(O)cc13)-c1cc3c(c(=O)n1C2)COC(=O)[C@]3(O)CC + NC1CC1c1ccc(-c2cccc(O)c2)cc1	Y
COc1cc(C2c3cc4c(cc3C(OC3OC5COC(C)OC5C(O)C3O)C3COC(=O)C23)OCO4)cc(OC)c1O (configuration not stated) + NC1CCC(NC2CC2c2ccccc2)CC1	N

Problem: I wonder whether NS(=O)(=O)OCC1CC(n2ccc3c(NC4CCc5ccccc54)ncnc32)CC1O (configuration not stated) + NC1CCC(NC2CC2c2ccccc2)CC1 has viability, T/C below 20%. Can you tell?
Solution: N

Problem: is_below(viability, T/C, 20%) for O=C(C=Cc1cccc(S(=O)(=O)Nc2ccccc2)c1)NO + NC1CCC(NC2CC2c2ccccc2)CC1 ?
Solution: N

Problem: Determine if NS(=O)(=O)OCC1CC(n2ccc3c(NC4CCc5ccccc54)ncnc32)CC1O (configuration not stated) + NC1CC1c1ccc(-c2cccc(O)c2)cc1 shows viability, T/C strictly lower than 20%.
Solution: N

====

Test system: MDA-MB-231 complex spheroid viability
assay.summary: Anticancer human tumor MDA-MB-231/ATCC cell line growth inhibition;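 also: drug exposure lasted 7 days starting on day 3 of spheroid growth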
condition.summary: second compound 0.316 µM; first compound 0.03 µM; stronger effect = lower value
assay.metric: viability, T/C (%)
The reply should contain only the number, in %.

compound	assay.target	assay.metric	measured.result
NS(=O)(=O)OCC1CC(n2ccc3c(NC4CCc5ccccc54)ncnc32)CC1O (centres undefined) + NC1CCC(NC2CC2c2ccccc2)CC1	MDA-MB-231 complex spheroid viability	viability, T/C	116
Nc1ccccc1NC(=O)c1ccc(CNC(=O)OCc2cccnc2)cc1 + NC1CC1c1ccc(-c2cccc(O)c2)cc1	MDA-MB-231 complex spheroid viability	viability, T/C	31.5
CCN(c1cc(-c2ccc(CN3CCOCC3)cc2)cc(C(=O)NCc2c(C)cc(C)[nH]c2=O)c1C)C1CCOCC1 + NC1CC1c1ccc(-c2cccc(O)c2)cc1	MDA-MB-231 complex spheroid viability	viability, T/C	70.2

Problem: Field request: viability, T/C | item: Nc1ccn(C2OC(CO)C(O)C2(F)F)c(=O)n1 (centres undefined) + NC1CC1c1ccc(-c2cccc(O)c2)cc1
Solution: 14.5

====

Test system: MDA-MB-231 complex spheroid viability
assay.summary: Anticancer human tumor MDA-MB-231/ATCC cell line growth inhibition;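 also: drug exposure lasted 7 days starting on day 3 of spheroid growth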
condition.summary: second compound 3.16 µM; first compound 0.000949 µM; stronger effect = lower value
assay.metric: viability, T/C (%)
Numeric only. Scale: %

Answered examples (2):
molecule	measured.result
Nc1ccn(C2OC(CO)C(O)C2(F)F)c(=O)n1 (stereo unspecified) + NC1CCC(NC2CC2c2ccccc2)CC1	23.7
Nc1ncn(C2CC(O)C(CO)S2)c(=O)n1 (stereo unspecified) + NC1CCC(NC2CC2c2ccccc2)CC1	77.2

Problem: Recorded viability, T/C of CCc1c2c(nc3ccc(O)cc13)-c1cc3c(c(=O)n1C2)COC(=O)[C@]3(O)CC + NC1CC1c1ccc(-c2cccc(O)c2)cc1 , please.
Solution: 22.4

Problem: Which viability, T/C value belongs to Nc1ccn(C2OC(CO)C(O)C2(F)F)c(=O)n1 (stereo unspecified) + NC1CC1c1ccc(-c2cccc(O)c2)cc1 ?
Solution: 33.8

Problem: Look up viability, T/C: CCc1c2c(nc3ccc(O)cc13)-c1cc3c(c(=O)n1C2)COC(=O)[C@]3(O)CC + NC1CCC(NC2CC2c2ccccc2)CC1
Solution: 17

Problem: Quick one: viability, T/C for Nc1ncn(C2CC(O)C(CO)S2)c(=O)n1 (stereo unspecified) + NC1CC1c1ccc(-c2cccc(O)c2)cc1 ?
Solution: 59.4

====

Test system: MDA-MB-231 complex spheroid viability
assay.summary: Anticancer human tumor MDA-MB-231/ATCC cell line growth inhibition;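 also: drug exposure lasted 7 days starting on day 3 of spheroid growth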
condition.summary: second compound 1 µM; first compound 0.316 µM; stronger effect = lower value
Here, each record is paired with measured viability, T/C data.
Please state the figure in %; there is no need to write the unit.

molecule	assay.target	result.units	viability, T/C
CC(C)c1c(-c2ccccc2)nc2c(C#N)c[nH]n2c1=O + NC1CCC(NC2CC2c2ccccc2)CC1	MDA-MB-231 complex spheroid viability	%	102

Problem: So what's the measured viability, T/C for this one? O=C(c1cc(Cc2n[nH]c(=O)c3ccccc23)ccc1F)N1CCN(C(=O)C2CC2)CC1 + NC1CC1c1ccc(-c2cccc(O)c2)cc1
Solution: 50.7

Problem: viability, T/C lookup needed for CC(C)c1c(-c2ccccc2)nc2c(C#N)c[nH]n2c1=O + NC1CC1c1ccc(-c2cccc(O)c2)cc1 , thanks.
Solution: 70.7

====

System: MDA-MB-231 complex spheroid viability
assay.summary: Anticancer human tumor MDA-MB-231/ATCC cell line growth inhibition; active = viability on the fitted dose curve at most 10% of control; inactive = the rest;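 also: drug exposure lasted 7 days starting on day 3 of spheroid growth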
condition.summary: second compound 1 µM; first compound 0.00316 µM
Respond using exactly one of the listed classes: active, inactive

compound	label.class
CC(C)CC(NC(=O)C(Cc1ccccc1)NC(=O)c1cnccn1)B(O)O (configuration not stated) + NC1CC1c1ccc(-c2cccc(O)c2)cc1	active
CC1COCCN1c1cc(-c2ccnn2C)c2ccnc(-c3ccn[nH]3)c2n1 (configuration not stated) + NC1CCC(NC2CC2c2ccccc2)CC1	inactive
COc1cc(Nc2ncc3c(n2)-c2ccc(Cl)cc2C(c2c(F)cccc2OC)=NC3)ccc1C(=O)O + NC1CCC(NC2CC2c2ccccc2)CC1	inactive
Cn1ncnc1C1c2n[nH]c(=O)c3cc(F)cc(c23)NC1c1ccc(F)cc1 (configuration not stated) + NC1CC1c1ccc(-c2cccc(O)c2)cc1	inactive
Cn1ncnc1C1c2n[nH]c(=O)c3cc(F)cc(c23)NC1c1ccc(F)cc1 (configuration not stated) + NC1CCC(NC2CC2c2ccccc2)CC1	inactive

Problem: What classification did CC(C)CC(NC(=O)C(Cc1ccccc1)NC(=O)c1cnccn1)B(O)O (configuration not stated) + NC1CCC(NC2CC2c2ccccc2)CC1 end up with in this test?
Solution: active

Problem: Hi team, can someone confirm the assay call for Nc1ncn(C2CC(O)C(CO)O2)c(=O)n1 (configuration not stated) + NC1CCC(NC2CC2c2ccccc2)CC1 ?
Solution: inactive

====

Tested on: MDA-MB-231 complex spheroid viability
assay.summary: Anticancer human tumor MDA-MB-231/ATCC cell line growth inhibition;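 also: drug exposure lasted 7 days starting on day 3 of spheroid growth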
condition.summary: curve of first compound; second compound 0.316 µM
# IC50 annotations
Answer format: numeric, nM implied, no suffix.

compound	measured.result
CC[C@@]1(O)C(=O)OCc2c1cc1n(c2=O)Cc2cc3c(CN(C)C)c(O)ccc3nc2-1 + NC1CC1c1ccc(-c2cccc(O)c2)cc1	0.845
Nc1ccccc1NC(=O)c1ccc(CNC(=O)OCc2cccnc2)cc1 + NC1CCC(NC2CC2c2ccccc2)CC1	65.8
CC1COCCN1c1cc(C2(S(C)(=N)=O)CC2)nc(-c2ccnc3[nH]ccc23)n1 (stereo not drawn) + NC1CCC(NC2CC2c2ccccc2)CC1	1460
Nc1ncn(C2CC(O)C(CO)S2)c(=O)n1 (stereo not drawn) + NC1CCC(NC2CC2c2ccccc2)CC1	21.2
CC1(C)CCC(CN2CCN(c3ccc(C(=O)NS(=O)(=O)c4ccc(NCC5CCOCC5)c([N+](=O)[O-])c4)c(Oc4cnc5[nH]ccc5c4)c3)CC2)=C(c2ccc(Cl)cc2)C1 + NC1CC1c1ccc(-c2cccc(O)c2)cc1	4290

Problem: Which IC50 is listed for Nc1ncn(C2CC(O)C(CO)S2)c(=O)n1 (stereo not drawn) + NC1CC1c1ccc(-c2cccc(O)c2)cc1 ?
Solution: 5.79

Problem: Requested field: IC50. Item: O=C(C=Cn1cnc(-c2cc(C(F)(F)F)cc(C(F)(F)F)c2)n1)NNc1cnccn1 + NC1CCC(NC2CC2c2ccccc2)CC1
Solution: 4.93

Problem: Entry CC(C)CC(NC(=O)CNC(=O)c1cc(Cl)ccc1Cl)B1OC(=O)CC(CC(=O)O)(C(=O)O)O1 (stereo not drawn) + NC1CC1c1ccc(-c2cccc(O)c2)cc1 : reported IC50 = ?
Solution: 3.09

Problem: // IC50 lookup, key: O=C(c1cc(Cc2n[nH]c(=O)c3ccccc23)ccc1F)N1CCN(C(=O)C2CC2)CC1 + NC1CC1c1ccc(-c2cccc(O)c2)cc1
Solution: 522

Problem: I am curious: what IC50 value has been reported for Cn1ncnc1C1c2n[nH]c(=O)c3cc(F)cc(c23)NC1c1ccc(F)cc1 (stereo not drawn) + NC1CC1c1ccc(-c2cccc(O)c2)cc1 ?
Solution: 49

Problem: What measured IC50 goes with CC1COCCN1c1cc(C2(S(C)(=N)=O)CC2)nc(-c2ccnc3[nH]ccc23)n1 (stereo not drawn) + NC1CC1c1ccc(-c2cccc(O)c2)cc1 ?
Solution: 749

Problem: Quick one: IC50 of CC1COCCN1c1cc(-c2ccnn2C)c2ccnc(-c3ccn[nH]3)c2n1 (stereo not drawn) + NC1CCC(NC2CC2c2ccccc2)CC1 ?
Solution: 34.3

Problem: Name the reported IC50 value associated with the compound COc1cc(C2c3cc4c(cc3C(OC3OC5COC(C)OC5C(O)C3O)C3COC(=O)C23)OCO4)cc(OC)c1O (stereo not drawn) + NC1CCC(NC2CC2c2ccccc2)CC1
Solution: 146

Problem: Given the entry O=C(C=Cc1cccc(S(=O)(=O)Nc2ccccc2)c1)NO + NC1CC1c1ccc(-c2cccc(O)c2)cc1 , report its measured IC50.
Solution: 13.2

Problem: Quick one: IC50 for CC(C)CC(NC(=O)CNC(=O)c1cc(Cl)ccc1Cl)B1OC(=O)CC(CC(=O)O)(C(=O)O)O1 (stereo not drawn) + NC1CCC(NC2CC2c2ccccc2)CC1 ?
Solution: 7.08

Problem: Returns the measured IC50 for the input compound. Input: COc1cc(C2c3cc4c(cc3C(OC3OC5COC(C)OC5C(O)C3O)C3COC(=O)C23)OCO4)cc(OC)c1O (stereo not drawn) + NC1CC1c1ccc(-c2cccc(O)c2)cc1
Solution: 13.4

Problem: Requested read-out: IC50. Entry: COc1ccc([C@@H](O)c2cc(-c3ncnc4cc(N5CCOCC5)ccc34)c(F)cc2Cl)nn1 + NC1CCC(NC2CC2c2ccccc2)CC1
Solution: 555

Problem: Fill in the blank: the reported IC50 of NS(=O)(=O)OCC1CC(n2ccc3c(NC4CCc5ccccc54)ncnc32)CC1O (stereo not drawn) + NC1CCC(NC2CC2c2ccccc2)CC1 is ____.
Solution: 280

All figures here come from PubChem BioAssay AID1918953.
